Origin of the recorded values: paper PMC10066365

List of rep 1 no phene values.
Tested on: Pristionchus pacificus
Experiment: Pristionchus pacificus motor disruption dose-response on solid media, 1 h
Settings: conc 3.75; count of 20 animals per trial, one hour
Just the number.

Would you mind telling me what rep 1 no phene value was observed for c1ccc(N2CCN(CC3CCCC3)CC2)cc1 [Nemacol-62] ?
20

CC1CCC(N2CCN(c3ccc(Cl)cc3)CC2)C1 (centres unmarked) [Nemacol-44] ?
17

---

Tested on: Dirofilaria immitis microfilariae
Test: Dirofilaria immitis microfilariae immobility assay (DiroImager, 72 h)
Settings: 10 µM; Dirofilaria immitis microfilariae
List of % effect (motility), DIROIM MF values.
Field format: number, assumed %, no unit text.

Below: 3 compounds and their reported % effect (motility), DIROIM MF.
Cc1cccc(CN2CCN(c3ccc([N+](=O)[O-])cc3)CC2)c1 ... 40
O=C(C1CCC1)N1CCN(c2ccc(F)cc2)CC1 ... 0
Fc1ccc(N2CCN(CC3CCCCC3)CC2)cc1 ... 0

Next compound, please.
Would you mind telling me what % effect (motility), DIROIM MF value was observed for "c1ccc(N2CCN(C3CCCCCC3)CC2)cc1" ?
0

---

Biological target: rat VAChT (Rattus norvegicus)
Construct: expressed in transfected cells; host or cells: rat PC12 (PC12 A123.7) cells, stably transfected; shared by Dr. Ali Roghani (Texas Tech University)
Sequence (Q62666 1-530): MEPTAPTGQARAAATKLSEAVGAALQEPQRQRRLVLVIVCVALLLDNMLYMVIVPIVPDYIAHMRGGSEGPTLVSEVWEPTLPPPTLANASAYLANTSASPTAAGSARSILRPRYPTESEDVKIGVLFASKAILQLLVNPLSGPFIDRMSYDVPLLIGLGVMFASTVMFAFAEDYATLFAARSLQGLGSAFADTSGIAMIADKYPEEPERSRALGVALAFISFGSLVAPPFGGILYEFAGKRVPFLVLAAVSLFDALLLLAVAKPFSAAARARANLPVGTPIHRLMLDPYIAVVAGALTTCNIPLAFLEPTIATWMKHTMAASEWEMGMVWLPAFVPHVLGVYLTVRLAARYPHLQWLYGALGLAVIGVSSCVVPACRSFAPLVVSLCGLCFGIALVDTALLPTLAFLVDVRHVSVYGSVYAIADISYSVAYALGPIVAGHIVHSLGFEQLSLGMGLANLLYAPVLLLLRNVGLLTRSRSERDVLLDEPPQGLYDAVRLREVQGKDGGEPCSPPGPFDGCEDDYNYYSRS
Test: [3H]Vesamicol competitive radioligand binding, PC12 cells expressing ratVAChT
Conditions: [3H]Vesamicol binding, PC12; experiment 2; read-out: expt 2 Ki (M) vs. rat VAChT (PC12)
MEASURED_ATTRIBUTE: Ki (M)
Field format: number, assumed M, no unit text.

Below: 4 compounds and their reported Ki.
Clc1ccc(N2CCN(CC3CC4C=CC3C4)CC2)cc1 (centres unmarked) ... 7.54e-08
c1ccc(N2CCN(C3CCCCCC3)CC2)cc1 ... 1.68e-06
CC1CCC(N2CCN(c3ccc(F)cc3)CC2)CC1 (centres unmarked) ... 1.04e-06
FC(F)(F)c1cccc(N2CCN(CC3CCCC3)CC2)c1 ... 8.47e-06

Would you mind telling me what Ki value was observed for Cc1ccc(N2CCN(C3CCC(C)C3)CC2)cc1 (centres unmarked) ?
3.76e-07

Cc1ccc(N2CCN(CC3CC4C=CC3C4)CC2)cc1 (centres unmarked) ?
1.26e-07

"c1ccc(N2CCN(CC3CCCC3)CC2)cc1" ?
3.34e-06

CC1CCC(N2CCN(c3ccccc3)CC2)CC1 (centres unmarked) ?
2.05e-06
